- EXPERIMENT: cells
- PARTICULARS: Homo sapiens, CAL-27
pIC50: −log10 of the molar value.
METRIC_NAME: pIC50

Study these solved cases before continuing.
[
  {
    "CHEMICAL_SMILES": "CCCCNNC(=O)c1ccc(CN(CC(=O)NCc2ccccc2)C(=O)c2ccc(N(C)C)cc2)cc1",
    "METRIC_NAME": "pIC50",
    "REPORTED": 5.99
  },
  {
    "CHEMICAL_SMILES": "CCCNNC(=O)c1ccc(CN(CC(=O)NCc2ccccc2)C(=O)c2ccc(N(C)C)cc2)cc1",
    "METRIC_NAME": "pIC50",
    "REPORTED": 5.99
  }
]

[P] CN(C)c1ccc(C(=O)N(CC(=O)NCc2ccccc2)Cc2ccc(C(=O)Nc3ccccc3N)cc2)cc1
[Q] CN(C)c1ccc(C(=O)N(CC(=O)NCc2ccccc2)Cc2ccc(C(=O)NNCC3CC3)cc2)cc1
Kindly compare P with Q and tell me which has the lower pIC50 figure. Pick one and reply with its label. P

This collection of values is drawn from ChEMBL document CHEMBL6120974.
